biological target: Homeobox protein Hox-A13 (Mus musculus) (UniProt Q62424); assay: inhibitors of HoxA13-DNA binding, primary screen, biochemical, fluorescence polarization, labeled oligonucleotide (AID 1185); details: 15 min, higher = more signal, called active from +8 up or from −8 down
Sequence (Q62424 whole entry, looked up): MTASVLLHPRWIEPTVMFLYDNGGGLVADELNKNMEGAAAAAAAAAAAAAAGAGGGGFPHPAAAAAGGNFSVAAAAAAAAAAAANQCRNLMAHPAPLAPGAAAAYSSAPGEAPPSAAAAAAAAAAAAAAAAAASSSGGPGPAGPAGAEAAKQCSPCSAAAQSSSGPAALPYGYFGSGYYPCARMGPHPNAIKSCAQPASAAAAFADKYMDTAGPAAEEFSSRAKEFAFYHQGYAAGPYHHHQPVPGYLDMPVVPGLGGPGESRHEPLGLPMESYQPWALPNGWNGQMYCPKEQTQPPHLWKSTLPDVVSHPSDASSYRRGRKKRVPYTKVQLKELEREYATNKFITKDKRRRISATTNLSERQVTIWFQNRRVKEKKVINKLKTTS
Activity calls are given as the source filed them.
MEASURE: z-score

State its z-score: "CC(C)(C)OC(=O)CC[C@]12N=C(c3ccc(OCCCO)cc3)O[C@H]1c1ccccc1N(Cc1ccccc1)C2=O" -0.817 (inactive)

State its z-score: "COCCOC(=O)N1C(=O)[C@@]2(c3cc(C#CCC(C(=O)OC)C(=O)OC)ccc31)[C@H](C(=O)NC[C@H](O)c1ccccc1)[C@H]1C(=O)O[C@H](c3ccccc3)[C@H](c3ccccc3)N1[C@@H]2c1ccc(O)cc1" -1.61 (inactive)

State its z-score: "NC(=O)[C@@H]1[C@H]2C(=O)O[C@H](c3ccccc3)[C@H](c3ccccc3)N2[C@H](c2ccc(OCCO)cc2)[C@@]12C(=O)Nc1ccc(C#CCCO)cc12" -4.88 (inactive)

State its z-score: CN1C(=O)C2C=CC(C(O)c3cc(C(F)(F)F)cc(C(F)(F)F)c3)N(NC(=O)OC(C)(C)C)C2C1=O (configuration not stated) -5.04 (inactive)

State its z-score: "CCOC(=O)C[C@H]1[C@H](OC(=O)c2cc3ccccc3oc2=O)[C@@H](NC(=O)c2ccc3ccccc3c2)c2cc(OCCCO)ccc2N1C(=O)Cc1ccc(OC)cc1" -2.96 (inactive)

State its z-score: "[N-]=[N+]=NCc1ccccc1[C@@H]1OC(c2ccc(OCCCO)cc2)=N[C@]1(Cc1ccccc1N=[N+]=[N-])C(=O)NCCN1CCOCC1" -4.64 (inactive)

State its z-score: "O=c1cccc(-c2ccco2)o1" -1.92 (inactive)
